// reported activity at 10 µM per item
# Tested on: SF-268
# Format: cell-based
# MEASUREMENT_PARAMETERS: Homo sapiens, one dose 10^-5 M, 48 h, read-out: % growth
Only the number, expressed in %, is required.

// worked examples, activity at 10 µM included
1. COc1ccc(/C=N\NC(=N)c2c(N)nc(S)nc2-c2ccc(N(C)C)cc2)cc1 [Compound 4d] = 97
2. Nc1nc(S)nc(-c2ccc(Cl)cc2Cl)c1-c1ncn[nH]1 [Compound 5c] = 101
3. N=C(NN=Cc1ccccc1)c1c(N)nc(S)nc1-c1ccc(Cl)cc1Cl [Compound 4m] = 105
4. N=C(NN=Cc1ccc(Cl)cc1Cl)c1c(N)nc(S)nc1-c1ccc(Cl)cc1Cl [Compound 4r] = 101
5. N=C(NN=Cc1ccccc1)c1c(N)nc(S)nc1-c1ccc(Cl)cc1 [Compound 4g] = 49.3

input: // fetch SF-268 activity at 10 µM for CN(C)c1ccc(-c2nc(S)nc(N)c2-c2ncn[nH]2)cc1 [Compound 5a]
output: 107

input: Note, next up: CN(C)c1ccc(-c2nc(S)nc(N)c2C#N)cc1 [Compound 1a]
output: 104

input: # iterate: N=C(NN=Cc1ccc(Cl)cc1)c1c(N)nc(S)nc1-c1ccc(Cl)cc1 [Compound 4h]
output: 96

input: # repeat for N=C(NN=Cc1ccc(Br)cc1)c1c(N)nc(S)nc1-c1ccc(Cl)cc1 [Compound 4k]
output: 90.2
